Reference for the values: ChEMBL document CHEMBL1122169

test: Partition coefficient (logP); assay type: physicochemical; details: octanol/water
I would appreciate it if you labelled entries criterion met when logP is 4 or higher, otherwise criterion not met.

Solved entries (count: 4):
CC(=O)Nc1cc(Cl)cc2[nH]c(C)nc12: criterion not met
Clc1cccc(OCc2nc3ccccc3[nH]2)c1Cl: criterion met
O=C(c1ccccc1)c1ccc2[nH]cnc2c1: criterion not met
CCCCCCCc1nc2ccccc2[nH]1: criterion met

Problem: Threshold query (logP >= 4) on `Cc1nc2cc(Cl)ccc2[nH]1`
Solution: criterion not met

Problem: Threshold query (logP >= 4) on `c1ccc2[nH]c(C3CC3)nc2c1`
Solution: criterion not met

Problem: Threshold query (logP >= 4) on `Cc1nc2c(C)c(C)ccc2[nH]1`
Solution: criterion not met

Problem: Threshold query (logP >= 4) on `CCCCC(=O)Nc1ccc2nc(C)[nH]c2c1`
Solution: criterion not met

Problem: Threshold query (logP >= 4) on `CCCCCc1nc2cc(NC(C)=O)ccc2[nH]1`
Solution: criterion not met

---

experiment: Partition coefficient (logP); assay type: physicochemical; settings: octanol/water
I would appreciate it if you labelled entries Y when logP is 3 or higher, otherwise N.

Solved entries (count: 3):
Cc1ccc2nc(C)[nH]c2c1: N
Cc1nc2cc(Cl)c(Cl)cc2[nH]1: Y
c1ccc2cc(Cc3nc4ccccc4[nH]3)ccc2c1: Y

Problem: Threshold query (logP >= 3) on `Cc1cccc(Cc2nc3ccccc3[nH]2)c1C`
Solution: Y

Problem: Threshold query (logP >= 3) on `CCCc1nc2ccccc2[nH]1`
Solution: N

Problem: Threshold query (logP >= 3) on `Cc1cccc(OCc2nc3ccccc3[nH]2)c1`
Solution: Y

Problem: Threshold query (logP >= 3) on `Brc1ccc(OCc2nc3ccccc3[nH]2)c(Br)c1`
Solution: Y

Problem: Threshold query (logP >= 3) on `c1ccc(-c2nc3ccccc3[nH]2)cc1`
Solution: N

Problem: Threshold query (logP >= 3) on `CCc1nc2ccc(C)cc2[nH]1`
Solution: N

---

Recorded measurements of IC50, one per entry
molecular target: Cytochrome P450 2B1 (Rattus norvegicus, UniProt P00176); experiment: Inhibitory potency to aminopyrine N-demethylase activity (P450) in hepatic microsomes from phenobarbitone-induced rats.; assay type: ADME, Liver; details: read-out: pI50 (converted)
Sequence (P00176 whole entry): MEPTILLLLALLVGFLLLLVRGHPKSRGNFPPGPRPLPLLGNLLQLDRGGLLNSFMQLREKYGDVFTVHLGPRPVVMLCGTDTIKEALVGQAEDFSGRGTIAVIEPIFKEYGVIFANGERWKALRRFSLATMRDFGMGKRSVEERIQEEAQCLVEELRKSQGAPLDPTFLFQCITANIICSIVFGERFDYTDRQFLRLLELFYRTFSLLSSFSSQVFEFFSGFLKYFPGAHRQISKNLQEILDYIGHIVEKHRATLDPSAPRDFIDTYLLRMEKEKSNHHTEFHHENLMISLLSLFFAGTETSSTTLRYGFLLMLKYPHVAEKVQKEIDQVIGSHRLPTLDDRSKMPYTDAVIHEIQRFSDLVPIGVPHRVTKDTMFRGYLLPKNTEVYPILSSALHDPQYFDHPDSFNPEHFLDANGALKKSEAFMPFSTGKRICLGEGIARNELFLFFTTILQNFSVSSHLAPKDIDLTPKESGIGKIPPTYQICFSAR
// return numeric value only (unit: µM, not printed)

Problem: Report IC50 for `Cc1cccc(OCc2nc3ccccc3[nH]2)c1`
Solution: 28.8

Problem: Report IC50 for `Clc1cccc(OCc2nc3ccccc3[nH]2)c1Cl`
Solution: 28.2

Problem: Report IC50 for `CCCCCCCCCCCCCc1nc2ccccc2[nH]1`
Solution: 22.9

Problem: Report IC50 for `CCCCCCCCc1nc2ccccc2[nH]1`
Solution: 28.8

---

assay: Partition coefficient (logP); format: physicochemical; settings: octanol/water
result-type: logP
Give only the figure.

Problem: Report logP for `ClCc1nc2ccccc2[nH]1`
Solution: 1.15

Problem: Report logP for `Cc1nc2ccccc2[nH]1`
Solution: 1.43

Problem: Report logP for `Cc1ccc(OCc2nc3ccccc3[nH]2)cc1C`
Solution: 3.4

Problem: Report logP for `c1ccc2[nH]c(C3CCCCC3)nc2c1`
Solution: 3.39

Problem: Report logP for `Brc1ccccc1OCc1nc2ccccc2[nH]1`
Solution: 3.51

Problem: Report logP for `CCc1ccc(OCc2nc3ccccc3[nH]2)cc1`
Solution: 3.59

Problem: Report logP for `c1ccc2[nH]cnc2c1`
Solution: 1.38
